- STUDY_SYSTEM: T1, human M-CSF (human, UniProt P09603 33-255, limits assumed); also: test concentration or dose not given here
- T1 construct: also called M-CSF (human); CSF-1
- T1 sequence: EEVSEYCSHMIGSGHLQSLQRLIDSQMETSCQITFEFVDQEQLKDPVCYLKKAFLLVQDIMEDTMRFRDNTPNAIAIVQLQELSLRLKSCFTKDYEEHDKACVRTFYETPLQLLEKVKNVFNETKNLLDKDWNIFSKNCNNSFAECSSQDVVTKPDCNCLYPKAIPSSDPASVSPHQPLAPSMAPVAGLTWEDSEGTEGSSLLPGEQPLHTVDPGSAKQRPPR
- TEST_NAME: ELISA
Property: ELISA fluorescence units; scope: individual binders

{"BINDER": "Celine (format not stated) (antibody, V domains shown) VH: QVQLQQSGPGLVKPSQTLSLTCAISGDSVSTSSAAWNWIRQSPSRGLEWLGRTYYRSKWKHEYAVSVKSRITINPDTSKNQFSLQLNSVTPEDTAVYYCARDRYYYSAFDYWGQGTLVTVSS VL: QSALTQPASVSGSPGQSITISCTGTSSDVGGYNSVSWYQQHPGKAPKLIIYAVSNRPSGVSNRFSGSKSGNTASLTISGLQAEDEADYYCASYDERFTRVFGGGTKLTVLG", "ELISA fluorescence units": "> 35000 units"}

So what's the measured ELISA fluorescence units for this one? Meriem (format not stated) (antibody, V domains shown) VH: QVQLQQSGPGLVKPSQTLSLTCAISGDSVSTSSAAWNWIRQSPSRGLEWLGRTYYRSKWKKEYAQSVKSRITINPDTSKNQFSLQLNSVTPEDTAVYYCARDRYYYSAFDYWGQGTLVTVSS VL: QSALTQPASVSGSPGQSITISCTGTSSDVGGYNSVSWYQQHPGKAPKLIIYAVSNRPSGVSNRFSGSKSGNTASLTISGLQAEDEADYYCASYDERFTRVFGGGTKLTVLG
> 35000 units
